tested on: CD4+ T-cells; assay: I-MUNE assay: CD4+ T-cell proliferation with dendritic cells and 15-mer peptides offset by 3 amino acids, community donors; conditions: Table 3
measured metric: Structure Value
Write the number on its own, no unit after it.

What does the record list as Structure Value for E6 31: human papillomavirus E6 protein, HPV strain 31 (protein, UniProt P17386 1-149, looked up) Protein E6: MFKNPAERPRKLHELSSALEIPYDELRLNCVYCKGQLTETEVLDFAFTDLTIVYRDDTPHGVCTKCLRFYSKVSEFRWYRYSVYGTTLEKLTNKGICDLLIRCITCQRPLCPEEKQRHLDKKKRFHNIGGRWTGRCIACWRRPRTETQV ? 0.53

# get_value(readout='Structure Value', item= E6 16: human papillomavirus E6 protein, HPV strain 16 (protein, UniProt P03126 1-158, looked up) Protein E6: MHQKRTAMFQDPQERPRKLPQLCTELQTTIHDIILECVYCKQQLLRREVYDFAFRDLCIVYRDGNPYAVCDKCLKFYSKISEYRHYCYSLYGTTLEQQYNKPLCDLLIRCINCQKPLCPEEKQRHLDKKQRFHNIRGRWTGRCMSCCRSSRTRRETQL ) 0.72

Field request: Structure Value | item: E7 45: HPV E7 protein, HPV strain 45 (protein, UniProt P21736 1-106, looked up) Protein E7: MHGPRETLQEIVLHLEPQNELDPVDLLCYEQLSESEEENDEADGVSHAQLPARRAEPQRHKILCVCCKCDGRIELTVESSAEDLRTLQQLFLSTLSFVCPWCATNQ 0.76
